Provide the reported MBC of each item.
test system: Salmonella enterica subsp. enterica; assay: Antibacterial activity against bacterial sensory kinase PhoP deficient Salmonella enterica serovar Typhimurium CS053 after 16 hrs by modified twofold broth microdilution method; assay type: functional, Salmonella enterica subsp. enterica serovar Typhimurium; details: CS053, 16 h
Where a SMILES comes first, the peptide text is derived from it.

Notebook: CC[C@H](C)[C@H](NC(=O)[C@H](CCCNC(=N)N)NC(=O)[C@H](C)NC(=O)[C@H](CC(C)C)NC(=O)[C@@H](N)CCCNC(=N)N)C(=O)N[C@H](C(=O)N1CCC[C@H]1C(=O)N[C@H](C(=O)N[C@@H](CCCNC(=N)N)C(=O)N[C@H](C(=O)N[C@@H](C)C(=O)N[C@@H](CCCNC(=N)N)C(N)=O)C(C)C)[C@@H](C)CC)C(C)C (H-RLARIVPIRVAR-NH2) , MBC read as 45.4 µg/mL

Looking up CC[C@H](C)[C@H](NC(=O)[C@H](CCCNC(=N)N)NC(=O)[C@H](C)NC(=O)[C@H](CC(C)C)NC(=O)[C@@H](N)CCCNC(=N)N)C(=O)N[C@H](C(=O)N[C@H](C(=O)N[C@H](C(=O)N[C@@H](CCCNC(=N)N)C(=O)N[C@H](C(=O)N[C@@H](C)C(=O)NCC(N)=O)C(C)C)[C@@H](C)CC)C(C)C)C(C)C (H-RLARIVVIRVAG-NH2) , I found its MBC recorded as 10.1 µg/mL

Recorded result, CC[C@H](C)[C@H](NC(=O)[C@H](CCCNC(=N)N)NC(=O)[C@H](CCCNC(=N)N)NC(=O)[C@H](CC(C)C)NC(=O)[C@@H](N)CCCNC(=N)N)C(=O)N[C@H](C(=O)N[C@H](C(=O)N[C@H](C(=O)N[C@@H](CCCNC(=N)N)C(=O)N[C@H](C(=O)N[C@@H](C)C(=O)N[C@@H](CCCNC(=N)N)C(N)=O)C(C)C)[C@@H](C)CC)C(C)C)C(C)C (H-RLRRIVVIRVAR-NH2) , MBC: 3.8 µg/mL

Consider CC[C@H](C)[C@H](NC(=O)[C@H](CCCNC(=N)N)NC(=O)[C@H](C)NC(=O)[C@H](CC(C)C)NC(=O)[C@@H](N)CCCNC(=N)N)C(=O)N[C@H](C(=O)N[C@H](C(=O)N[C@H](C(=O)N[C@@H](CCCNC(=N)N)C(=O)N[C@H](C(=O)N[C@@H](C)C(=O)N[C@@H](CCCNC(=N)N)C(N)=O)C(C)C)[C@@H](C)CC)C(C)C)C(C)C (H-RLARIVVIRVAR-NH2) . Its measured MBC is 6.5 µg/mL

###

tested on: Salmonella enterica subsp. enterica; assay: Antibacterial activity against bacterial sensory kinase PhoQ deficient Salmonella enterica serovar Typhimurium CS009 by modified twofold broth microdilution method; type: functional, Salmonella enterica subsp. enterica serovar Typhimurium
Measured Attribute: MIC

Sure, the documented MIC for CC1(C)S[C@@H]2[C@H](NC(=O)[C@H](N)c3ccccc3)C(=O)N2[C@H]1C(=O)O [AMPICILLIN] is 8 µg/mL

Entry CCn1cc(C(=O)O)c(=O)c2ccc(C)nc21 [NALIDIXIC ACID] — recorded MIC = 3 µg/mL

GET /value?item= COc1cc(Cc2cnc(N)nc2N)cc(OC)c1OC [TRIMETHOPRIM] &field=MIC returns 1 µg/mL

// sample CN(C)[C@@H]1C(O)=C(C(N)=O)C(=O)[C@@]2(O)C(O)=C3C(=O)c4c(O)cccc4[C@@](C)(O)[C@H]3C[C@@H]12 [TETRACYCLINE] , its MIC was 3 µg/mL

compound CC1(C)S[C@@H]2[C@H](NC(=O)C(C(=O)O)c3ccccc3)C(=O)N2[C@H]1C(=O)O (stereo not given in full) [CARBENICILLIN] , MIC observed: 8 µg/mL
